This collection of values is drawn from patent US20160257732A1.

- assay.system: HA of ca A/Vietnam/1203/04 (H5N1) (influenza A virus)
- test.method.notes: cell-based or functional assay
The entries below come with measured Neutralization IC50, H5-VM04 values attached.
Note: unit µg/mL is implicit; provide only the numeric part.

{"binder": "Antibody 12 (antibody, V domains shown) VH: QVQLQQSGPGLVKPSQTLSLTCAISGDSVSSYNAVWNWIRQSPSRGLEWLGRTYYRSGWYNDYAESVKSRITINPDTSKNQFSLQLNSVTPEDTAVYYCARSGHITVFGVNVDAFDMWGQGTMVTVSS VL: DIQMTQSPSSLSASVGDRVTITCRTSQSLSSYTHWYQQKPGKAPKLLIYAASSRGSGVPSRFSGSGSGTDFTLTISSLQPEDFATYYCQQSRTFGQGTKVEIK", "Neutralization IC50, H5-VM04 (µg/mL)": 0.31}
{"binder": "Antibody 13 (antibody, V domains shown) VH: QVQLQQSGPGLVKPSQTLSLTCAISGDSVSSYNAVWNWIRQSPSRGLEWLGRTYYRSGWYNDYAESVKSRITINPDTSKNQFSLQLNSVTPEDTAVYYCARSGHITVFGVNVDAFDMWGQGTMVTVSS VL: DIQMTQSPSSLSASVGDRVTITCRTSQSLSSYDHWYQQKPGKAPKLLIYAASSRLSGVPSRFSGSGSGTDFTLTISSLQPEDFATYYCQQSRTFGQGTKVEIK", "Neutralization IC50, H5-VM04 (µg/mL)": 0.56}

So for Antibody 11 (antibody, V domains shown) VH: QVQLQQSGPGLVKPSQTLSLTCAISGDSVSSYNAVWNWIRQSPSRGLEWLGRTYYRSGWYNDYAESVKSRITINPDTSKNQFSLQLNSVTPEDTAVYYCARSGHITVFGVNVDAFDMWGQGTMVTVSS VL: DIQMTQSPSSLSASVGDRVTITCRTSQSLSSYTHWYQQKPGKAPKLLIYAASSRLSGVPSRFSGSGSGTDFTLTISSLQPEDFATYYCQQSRTFGQGTKVEIK , the logged Neutralization IC50, H5-VM04 turned out to be 0.57
